Target: HLA-A*31:01
Assay: IEDB peptide-MHC binding, purified MHC/direct/fluorescence; filed as Kd, often an IC50 or EC50 that approximates it; bounds were set here for any values at or beyond the usual limits of such assays
Details: source organism: Pseudomonas tolaasii
pKd: −log10 of the molar value.
readout: pKd

1. AEGTGITHL    ≤ 4.70

###

Biological target: HLA-A*02:06
Assay: IEDB peptide-MHC binding, purified MHC/competitive/fluorescence; filed as Kd, often an IC50 or EC50 that approximates it; bounds were set here for any values at or beyond the usual limits of such assays
Settings: source organism: Mammarenavirus lassaense
readout: Kd

1. GYAWIDFDI    ≥ 20 µM

###

Target: HLA-A*03:01
Experiment: IEDB peptide-MHC binding, purified MHC/competitive/fluorescence; filed as Kd, often an IC50 or EC50 that approximates it; bounds were set here for any values at or beyond the usual limits of such assays
Conditions: source organism: Entamoeba histolytica HM-1:IMSS
pKd: −log10 of the molar value.
readout: pKd

1) YLHIHPFKI    ≤ 4.70

###

Target: HLA-B*15:01
Assay: IEDB peptide-MHC binding, purified MHC/direct/fluorescence; filed as Kd, often an IC50 or EC50 that approximates it; bounds were set here for any values at or beyond the usual limits of such assays
Conditions: source organism: Pseudomonas putida
readout: Kd (nM)

1) HTAEIQQFF    90.6

###

pKd overview
Molecular target: HLA-B*46:01
Assay: IEDB peptide-MHC binding, purified MHC/competitive/fluorescence; filed as Kd, often an IC50 or EC50 that approximates it; bounds were set here for any values at or beyond the usual limits of such assays
Conditions: source organism: Orthohantavirus andesense
pKd: −log10 of the molar value.
readout: pKd

1. KPKALSEAF    ≤ 4.70
2. LEEDIQHFL    ≤ 4.70

###

Target: HLA-B*40:01
Assay: IEDB peptide-MHC binding, purified MHC/competitive/radioactivity; filed as Kd, often an IC50 or EC50 that approximates it; bounds were set here for any values at or beyond the usual limits of such assays
Conditions: source organism: Mammarenavirus brazilense
pKd: −log10 of the molar value.
readout: pKd

1. PEDQGNPIVL    ≤ 4.51

###

Target: HLA-A*02:03
Test: IEDB peptide-MHC binding, purified MHC/direct/fluorescence; filed as Kd, often an IC50 or EC50 that approximates it; bounds were set here for any values at or beyond the usual limits of such assays
Conditions: source organism: Oran virus
pKd: −log10 of the molar value.
readout: pKd

1. KPKALSEAF    ≤ 4.70

###

Target: HLA-B*18:01
Test: IEDB peptide-MHC binding, purified MHC/competitive/fluorescence; filed as Kd, often an IC50 or EC50 that approximates it; bounds were set here for any values at or beyond the usual limits of such assays
Conditions: source organism: Human herpesvirus 5 strain Towne
pKd: −log10 of the molar value.
readout: pKd

1. LPLKMLNIPSINVH    ≤ 4.70

###

Target: HLA-A*02:16
Assay: IEDB peptide-MHC binding, purified MHC/competitive/fluorescence; filed as Kd, often an IC50 or EC50 that approximates it; bounds were set here for any values at or beyond the usual limits of such assays
Settings: source organism: Bacillus anthracis str. 'Ames Ancestor'
pKd: −log10 of the molar value.
readout: pKd

1. MTQNISNDK    ≤ 4.70
